// data source = ChEMBL document CHEMBL1629464

experimentalSystem: Aldehyde oxidase 1 (Oryctolagus cuniculus, UniProt P80456)
Sequence (P80456 whole entry): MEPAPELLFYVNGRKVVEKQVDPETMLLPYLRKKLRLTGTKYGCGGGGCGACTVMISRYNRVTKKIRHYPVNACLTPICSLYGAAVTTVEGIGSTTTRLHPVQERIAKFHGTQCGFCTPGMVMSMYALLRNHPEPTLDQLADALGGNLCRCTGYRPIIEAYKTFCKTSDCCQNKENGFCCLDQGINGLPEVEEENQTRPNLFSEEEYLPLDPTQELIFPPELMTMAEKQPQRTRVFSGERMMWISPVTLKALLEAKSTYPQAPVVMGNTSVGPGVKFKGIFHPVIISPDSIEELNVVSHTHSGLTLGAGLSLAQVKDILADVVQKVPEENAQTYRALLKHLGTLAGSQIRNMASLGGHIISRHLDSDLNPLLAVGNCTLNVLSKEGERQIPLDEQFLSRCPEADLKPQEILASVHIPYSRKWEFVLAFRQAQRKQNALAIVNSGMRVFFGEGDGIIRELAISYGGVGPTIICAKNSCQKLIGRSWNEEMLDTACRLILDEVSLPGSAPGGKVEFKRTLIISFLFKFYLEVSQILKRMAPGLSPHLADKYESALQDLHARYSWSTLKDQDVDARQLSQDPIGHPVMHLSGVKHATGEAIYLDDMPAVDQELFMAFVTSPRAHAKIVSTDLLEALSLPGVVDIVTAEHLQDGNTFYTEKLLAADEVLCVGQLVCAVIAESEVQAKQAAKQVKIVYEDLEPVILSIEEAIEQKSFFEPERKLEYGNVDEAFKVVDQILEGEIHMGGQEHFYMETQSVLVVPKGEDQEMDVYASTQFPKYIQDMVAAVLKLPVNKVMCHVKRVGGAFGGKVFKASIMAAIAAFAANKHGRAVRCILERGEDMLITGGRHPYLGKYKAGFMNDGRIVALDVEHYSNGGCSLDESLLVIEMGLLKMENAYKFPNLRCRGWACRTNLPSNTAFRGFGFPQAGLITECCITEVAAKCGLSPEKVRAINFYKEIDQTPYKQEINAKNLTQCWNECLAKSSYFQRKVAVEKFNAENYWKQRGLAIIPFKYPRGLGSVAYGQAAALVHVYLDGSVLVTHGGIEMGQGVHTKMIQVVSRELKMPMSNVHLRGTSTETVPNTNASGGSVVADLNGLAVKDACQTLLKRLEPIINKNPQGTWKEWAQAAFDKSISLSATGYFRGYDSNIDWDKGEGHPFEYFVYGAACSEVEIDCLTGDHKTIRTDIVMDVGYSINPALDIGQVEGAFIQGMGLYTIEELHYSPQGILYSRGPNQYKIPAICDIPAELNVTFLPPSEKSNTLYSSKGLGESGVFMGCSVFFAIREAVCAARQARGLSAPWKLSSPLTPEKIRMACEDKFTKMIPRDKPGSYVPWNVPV
assayEndpoint: pKi
Numbers only, as −log10 of the molar value.

q: // query pKi value for entry COc1cc(NS(C)(=O)=O)ccc1Nc1c2ccccc2nc2ccccc12
a: 7.22
